Ref: the Human Domainome abundance scans (Beltran et al. 2025)

B1: Histone-lysine N-methyltransferase SETD2, residues 2382 to 2430; numbered along this chain, Q9BYW2 (parent)
chain: SPPKPKTIVLPPNWKTARDPEGKIYYYHVITRQTQWDPPTWESPGDDAS

- Variants of: B1
- PROTOCOL_NOTES: abundance fitness (aPCA) (normalised: wild type 0, dead -1); higher = more abundant; growth selection in yeast, the domain comes from the species named
- TEST_PARAMETERS: Homo sapiens
Note to self: values exactly at -0.2 are 1. So abundance fitness at or above -0.2 is 1, below is 0.

VARIANT	GROUP
P38W	1
I30M	1
T31Y	0
P20I	1
P3H	1
A48Q	1
G45E	1
D19T	1
E21K	1
P12A	1
D37A	1
D46N	1
H28E	0
D46I	1
D37F	0
W36G	1
W36E	1
P5Y	1
E21S	1
G22A	0
S43G	1
R32V	0
D47G	1
P12C	0
R32Q	1
S43W	0
G22C	0
P11L	0
P5I	1
T31M	0
S49N	0
Y26V	0
Q33D	1
T31L	0
I8D	1
T7A	1
R32W	0
P3W	1
D46F	0
V9D	1
